B1: library; numbered along this chain (parent)
chain: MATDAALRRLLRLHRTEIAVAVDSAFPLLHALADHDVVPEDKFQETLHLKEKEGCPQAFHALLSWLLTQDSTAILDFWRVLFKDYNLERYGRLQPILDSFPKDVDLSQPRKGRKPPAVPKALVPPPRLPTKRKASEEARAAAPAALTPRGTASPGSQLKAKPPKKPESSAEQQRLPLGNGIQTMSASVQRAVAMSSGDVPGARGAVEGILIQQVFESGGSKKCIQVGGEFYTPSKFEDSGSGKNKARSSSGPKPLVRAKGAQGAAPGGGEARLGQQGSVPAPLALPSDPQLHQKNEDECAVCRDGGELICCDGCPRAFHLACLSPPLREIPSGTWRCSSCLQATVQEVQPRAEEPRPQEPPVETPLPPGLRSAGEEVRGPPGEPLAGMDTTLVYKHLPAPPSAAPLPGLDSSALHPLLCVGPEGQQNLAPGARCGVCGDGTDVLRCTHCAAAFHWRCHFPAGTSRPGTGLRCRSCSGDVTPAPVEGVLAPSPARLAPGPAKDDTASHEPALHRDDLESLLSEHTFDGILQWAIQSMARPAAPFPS

variants of: B1; test: AIRE transcriptional activation functional score (insulin promoter-GFP; nonsense median 0, synonymous median 1) (normalised score); higher = higher AIRE activity (more reporter activation); conditions: with insulin promoter-GFP reporter in HEK293
Kind request: treat 0.6 as inclusive, so AIRE transcriptional activation functional score at 0.6 or higher is YES, anything lower is NO.

>>> classification("C299G")
"NO"
>>> classification("P95K")
"NO"
>>> classification("Q173A")
"YES"
>>> classification("L128I")
"YES"
>>> classification("W78R")
"NO"
>>> classification("E270P")
"YES"
>>> classification("E375L")
"YES"
>>> classification("K501E")
"NO"
>>> classification("L32N")
"NO"
>>> classification("P162W")
"YES"
>>> classification("C340K")
"YES"
>>> classification("D515A")
"NO"
>>> classification("V118R")
"NO"
>>> classification("A505L")
"YES"
>>> classification("Q172K")
"YES"
>>> classification("A537P")
"NO"
>>> classification("K164T")
"YES"
>>> classification("D514W")
"NO"
>>> classification("L488Y")
"YES"
>>> classification("P367G")
"NO"
>>> classification("L418T")
"YES"
